Source: the supplement of paper PMC10567573

B1: MMP1 (parent)
chain: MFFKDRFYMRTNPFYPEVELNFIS

Variants of: B1
Assay: protein stability index of a GFP-peptide fusion (GPS, HEK-293T) (PSI 1-6); higher = more stable;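 note: lentivirally expressed fusions sorted by FACS into six bins by GFP to DsRed ratio, PSI derived from sequencing read proportions per bin multiplied by bin number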
Recorded Conditions: c terminus: a fixed tail appended
Would you mind telling me the reported protein stability index of each entry?

For reference, reported protein stability index for `P16H` stands at 2.95

For reference, reported protein stability index for `L20H` stands at 2.98

For reference, reported protein stability index for `R10D` stands at 2.14

For reference, reported protein stability index for `E19F` stands at 3.27

For reference, reported protein stability index for `M1K` stands at 2.94

For reference, reported protein stability index for `E19D` stands at 2.34

For reference, reported protein stability index for `S24D` stands at 2.77

For reference, reported protein stability index for `E17W` stands at 3.19

For reference, reported protein stability index for `F14T` stands at 2.33

For reference, reported protein stability index for `M1C` stands at 2.83

For reference, reported protein stability index for `M9H` stands at 1.83

For reference, reported protein stability index for `M9R` stands at 2.1

For reference, reported protein stability index for `F7C` stands at 2.32

For reference, reported protein stability index for `M9A` stands at 1.27

For reference, reported protein stability index for `L20S` stands at 2.35

For reference, reported protein stability index for `I23S` stands at 2.63

For reference, reported protein stability index for `S24L` stands at 4.01

For reference, reported protein stability index for `F14G` stands at 2.92

For reference, reported protein stability index for `M1N` stands at 1.76

For reference, reported protein stability index for `R6F` stands at 2.48

For reference, reported protein stability index for `M9F` stands at 2.56

For reference, reported protein stability index for `I23E` stands at 2.33

For reference, reported protein stability index for `Y8A` stands at 2.69

For reference, reported protein stability index for `I23Q` stands at 2.34

For reference, reported protein stability index for `R6S` stands at 2.64

For reference, reported protein stability index for `P16C` stands at 2.71

For reference, reported protein stability index for `F2V` stands at 2.75

For reference, reported protein stability index for `D5W` stands at 1.94

For reference, reported protein stability index for `Y15W` stands at 2.93

For reference, reported protein stability index for `L20T` stands at 1.85

For reference, reported protein stability index for `N21P` stands at 2.26

For reference, reported protein stability index for `S24F` stands at 3.13

For reference, reported protein stability index for `L20E` stands at 3.27

For reference, reported protein stability index for `F3L` stands at 2.29

For reference, reported protein stability index for `E17I` stands at 3.71

For reference, reported protein stability index for `M9G` stands at 3.71

For reference, reported protein stability index for `P16M` stands at 1.74

For reference, reported protein stability index for `K4I` stands at 3.25

For reference, reported protein stability index for `Y8G` stands at 2.07

For reference, reported protein stability index for `M1S` stands at 2.84

For reference, reported protein stability index for `I23R` stands at 3.09

For reference, reported protein stability index for `L20V` stands at 2.11

For reference, reported protein stability index for `K4M` stands at 2.3

For reference, reported protein stability index for `F22M` stands at 2.32

For reference, reported protein stability index for `F22P` stands at 2.18

For reference, reported protein stability index for `F2C` stands at 3.01

For reference, reported protein stability index for `F7W` stands at 3.2

For reference, reported protein stability index for `R6N` stands at 2.96

For reference, reported protein stability index for `F2G` stands at 3.1

For reference, reported protein stability index for `F3N` stands at 1.73

For reference, reported protein stability index for `N21D` stands at 3.07

For reference, reported protein stability index for `F3H` stands at 1.89

For reference, reported protein stability index for `E19C` stands at 3.18

For reference, reported protein stability index for `R10C` stands at 3.2

For reference, reported protein stability index for `F22V` stands at 2.92

For reference, reported protein stability index for `E17M` stands at 2.78

For reference, reported protein stability index for `N21R` stands at 2.74

For reference, reported protein stability index for `Y15G` stands at 2.09

For reference, reported protein stability index for `N12T` stands at 2.56

For reference, reported protein stability index for `S24Q` stands at 2.87

For reference, reported protein stability index for `T11P` stands at 3.77

For reference, reported protein stability index for `F22G` stands at 2.22

For reference, reported protein stability index for `L20A` stands at 2.27

For reference, reported protein stability index for `F7H` stands at 2.13

For reference, reported protein stability index for `K4V` stands at 1.49

For reference, reported protein stability index for `E17C` stands at 4.42

For reference, reported protein stability index for `N12Y` stands at 3.12

For reference, reported protein stability index for `D5Q` stands at 3.19

For reference, reported protein stability index for `Y15R` stands at 2.66
